particulars: a range is the spread between reports
property.label: melting point

These recorded examples may help you get a feel for the data.
- compound.structure: "Clc1cc(Cl)c(Cl)nc1Cl"
  data.value: "90.5 to 91 °C"
- compound.structure: "COC(C)(C)C"
  data.value: "-109 °C"
- compound.structure: "Nc1ccncc1N"
  data.value: "216 to 220 °C"

# evaluate next
Query: Quick one: melting point for Brc1ccc2c(c1)Cc1ccccc1-2 ?
Reply: 112 to 114 °C

###

particulars: a range is the spread between reports
property.label: melting point

- compound: "O=C(CCl)CCl"
  data.value: "44 to 45 °C"
- compound: "Cc1ccc(F)cc1[N+](=O)[O-]"
  data.value: "26 to 27 °C"
- compound: "CS(=O)(=O)c1ccc(C(O)C(CO)NC(=O)C(Cl)Cl)cc1 (stereo not drawn)"
  data.value: "165 °C"
- compound: "BrCc1ccc(Br)cc1"
  data.value: "62 to 63 °C"
- compound: "C=CC#N"
  data.value: "-84 to -83.5 °C"
- compound: "c1ccc(Cc2ccc(-c3ccccc3)cc2)cc1"
  data.value: "85 to 86 °C"
- compound: "O=Cc1cc(Br)c(O)c(Br)c1"
  data.value: "181 to 182 °C"
- compound: "c1ccc(N=C(Nc2ccccc2)Nc2ccccc2)cc1"
  data.value: "144 to 146 °C"
- compound: "O=C(O)c1cc(-c2ccccc2)nc2ccccc12"
  data.value: "214 to 215 °C"
- compound: "Nc1c(Cl)cc([N+](=O)[O-])cc1[N+](=O)[O-]"
  data.value: "154 to 157 °C"

Query: // lookup melting point for O=C1C=Cc2cccc3cccc1c23
Reply: 154 °C

Query: CCC(C)(C)C(=O)OC1CC(C)C=C2C=CC(C)C(CCC3CC(O)CC(=O)O3)C21 (stereo not drawn) , same question.
Reply: 136 °C

Query: Now the same for Clc1ccccc1Br
Reply: -13 to -12.3 °C

###

particulars: a range is the spread between reports
property.label: melting point

- molecule: "BrC(c1ccccc1)(c1ccccc1)c1ccccc1"
  melting point: "153 to 154 °C"
- molecule: "Nn1cnnc1"
  melting point: "82.5 to 86 °C"
- molecule: "O=C(O)c1cccc([N+](=O)[O-])c1Cl"
  melting point: "181 to 184 °C"
- molecule: "O=C(O)CCCCCCC(=O)O"
  melting point: "143 to 144 °C"
- molecule: "CCNC(=O)NCC"
  melting point: "110 to 112 °C"
- molecule: "CCOC(=O)C#CC(=O)OCC"
  melting point: "1.5 to 2 °C"
- molecule: "CCC(CC)C(C)C"
  melting point: "-115 °C"
- molecule: "C=C[Si]1(C)O[Si](C)(C=C)O[Si](C)(C=C)O[Si](C)(C=C)O1 (centres undefined)"
  melting point: "-43.5 to -43 °C"

Query: I have this molecule here, N#Cc1cc(Cl)cc(Cl)c1 , and I need its recorded melting point.
Reply: 64 to 66 °C

Query: Please answer likewise for CCC(N)=O
Reply: 78 to 81.3 °C

Query: Another: O=C(O)c1cc([N+](=O)[O-])ccc1O
Reply: 230 to 232 °C

Query: Query CCCCCCCCCC(C)=O next
Reply: 12 to 15 °C
